Value source: paper PMC6003237

Tested on: mice
condition.description: single IV injection, mice
*1 amine or outer side, *2 acyl side, *3 side chain or, on linkers, in order; H or OH if unused. Where a SMILES comes first, the peptide text is derived from it. [ ]: non-standard residue; d: D form. The star is where a group is joined. Emetine(N2') = CC[C@H]1CN2CCc3cc(OC)c(OC)cc3[C@@H]2C[C@@H]1C[C@@H]1c2cc(OC)c(OC)cc2CCN1*; PABC = O=C(OCc1ccc(N[*:1])cc1)[*:2]
observation.type: dose producing acute toxicity (convulsions and death)

Recorded dose producing acute toxicity (convulsions and death), per entry:
>  <compound>
CC[C@H]1CN2CCc3cc(OC)c(OC)cc3[C@@H]2C[C@@H]1C[C@@H]1c2cc(OC)c(OC)cc2CCN1C(=O)OCc1ccc(NC(=O)[C@@H]2CCCN2C(=O)[C@H](C)NC(=O)[C@@H]2CCCN2C(=O)[C@H](C)NC(C)=O)cc1 [compound 24] (Ac-APAP[PABC]-{Emetine(N2')})

>  <value.observed>
33 mg/kg

$$$$
>  <compound>
CC[C@H]1CN2CCc3cc(OC)c(OC)cc3[C@@H]2C[C@@H]1C[C@@H]1c2cc(OC)c(OC)cc2CCN1C(=O)OCc1ccc(NC(=O)[C@H](CC(C)C)NC(=O)[C@H](CO)NC(=O)[C@H](CCC(N)=O)NC(=O)[C@H](CC(C)C)NC(=O)[C@H](CCCCN)NC(=O)[C@H](CO)NC(=O)[C@H](CO)NC(=O)[C@H](Cc2cnc[nH]2)NC(C)=O)cc1 [compound 16] (Ac-HSSKLQSL[PABC]-{Emetine(N2')})

>  <value.observed>
50 mg/kg

$$$$
>  <compound>
CC[C@H]1CN2CCc3cc(OC)c(OC)cc3[C@@H]2C[C@@H]1C[C@@H]1c2cc(OC)c(OC)cc2CCN1C(=O)[C@@H]1CCCN1C(=O)[C@H](C)N

>  <value.observed>
16 mg/kg

$$$$

Now take the following compound into account.
Param item: CC[C@H]1CN2CCc3cc(OC)c(OC)cc3[C@@H]2C[C@@H]1C[C@H]1NCCc2cc(OC)c(OC)cc21 [Emetine, emetine, reference compound] ; param system: mice; output dose producing acute toxicity (convulsions and death): 16 mg/kg

* * *

Test system: mice
condition.description: IV injection, mice of average body weight 25 g
*1 amine or outer side, *2 acyl side, *3 side chain or, on linkers, in order; H or OH if unused. Where a SMILES comes first, the peptide text is derived from it. [ ]: non-standard residue; d: D form. The star is where a group is joined. Emetine(N2') = CC[C@H]1CN2CCc3cc(OC)c(OC)cc3[C@@H]2C[C@@H]1C[C@@H]1c2cc(OC)c(OC)cc2CCN1*; PABC = O=C(OCc1ccc(N[*:1])cc1)[*:2]
The entries below come with measured MTD (nmol injected) values attached.

>  <compound>
CC[C@H]1CN2CCc3cc(OC)c(OC)cc3[C@@H]2C[C@@H]1C[C@@H]1c2cc(OC)c(OC)cc2CCN1C(=O)OCc1ccc([N+](=O)[O-])cc1 [compound 25]

>  <observation.type>
MTD (nmol injected)

>  <value.observed>
> 2425 nmol

$$$$
>  <compound>
CC[C@H]1CN2CCc3cc(OC)c(OC)cc3[C@@H]2C[C@@H]1C[C@@H]1c2cc(OC)c(OC)cc2CCN1C(=O)CCC(=O)O [compound 22]

>  <observation.type>
MTD (nmol injected)

>  <value.observed>
> 4305 nmol

$$$$
>  <compound>
CC[C@H]1CN2CCc3cc(OC)c(OC)cc3[C@@H]2C[C@@H]1C[C@@H]1c2cc(OC)c(OC)cc2CCN1C(=O)/C=C(/CC(=O)O)C(=O)O [compound 20]

>  <observation.type>
MTD (nmol injected)

>  <value.observed>
> 3926 nmol

$$$$

So, CC[C@H]1CN2CCc3cc(OC)c(OC)cc3[C@@H]2C[C@@H]1C[C@@H]1c2cc(OC)c(OC)cc2CCN1C(=O)OCc1ccc(NC(=O)[C@H](CC(C)C)NC(=O)[C@@H](N)CO)cc1 [compound 14] ? Its MTD (nmol injected) was 1541 nmol

CC[C@H]1CN2CCc3cc(OC)c(OC)cc3[C@@H]2C[C@@H]1C[C@@H]1c2cc(OC)c(OC)cc2CCN1C(=O)/C=C(/C)C(=O)O [compound 19] yielded MTD (nmol injected) of > 4218 nmol

MTD (nmol injected) recorded for this compound, CC[C@H]1CN2CCc3cc(OC)c(OC)cc3[C@@H]2C[C@@H]1C[C@@H]1c2cc(OC)c(OC)cc2CCN1C(=S)[S-].[Na+] [compound 18] , is > 4320 nmol

response.value for CC[C@H]1CN2CCc3cc(OC)c(OC)cc3[C@@H]2C[C@@H]1C[C@@H]1c2cc(OC)c(OC)cc2CCN1C(=O)OCc1ccc(NC(=O)[C@H](CC(C)C)NC(=O)[C@H](CO)NC(=O)[C@H](CCC(N)=O)NC(=O)[C@H](CC(C)C)NC(=O)[C@H](CCCCN)NC(=O)[C@H](CO)NC(=O)[C@H](CO)NC(=O)[C@H](Cc2cnc[nH]2)NC(C)=O)cc1 [compound 16] (Ac-HSSKLQSL[PABC]-{Emetine(N2')}) (field: MTD (nmol injected)) = 402 nmol

// sample CC[C@H]1CN2CCc3cc(OC)c(OC)cc3[C@@H]2C[C@@H]1C[C@H]1NCCc2cc(OC)c(OC)cc21 [Emetine, emetine, reference compound] , its MTD (nmol injected) was 416 nmol
